molecular target: UniProt Q9Y5Y4
Sequence (Q9Y5Y4 whole entry): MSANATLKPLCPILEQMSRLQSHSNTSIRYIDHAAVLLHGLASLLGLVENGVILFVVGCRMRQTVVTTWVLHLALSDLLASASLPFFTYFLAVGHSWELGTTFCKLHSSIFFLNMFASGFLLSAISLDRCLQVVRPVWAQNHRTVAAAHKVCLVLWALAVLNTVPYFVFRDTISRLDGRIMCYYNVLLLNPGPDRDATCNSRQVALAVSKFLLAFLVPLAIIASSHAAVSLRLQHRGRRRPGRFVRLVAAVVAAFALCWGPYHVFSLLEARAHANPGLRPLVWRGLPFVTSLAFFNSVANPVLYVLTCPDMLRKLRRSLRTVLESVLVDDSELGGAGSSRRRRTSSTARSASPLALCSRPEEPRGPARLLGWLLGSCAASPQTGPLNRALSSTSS
pKi: −log10 of the molar value.
Item-by-item account of pKi

Record excerpt, results attached:
Compound	Assay target	Recorded measurement
Cc1c(Cc2ccc(Cl)cc2Cl)c(OC(F)F)nc2c(F)ccc(O[C@H](C)C(=O)O)c12 [Example 70]	UniProt Q9Y5Y4	> 7.00
Cc1nc2c(Cl)ccc(OCC(=O)O)c2c(OC(F)F)c1Cc1ccc(F)cc1 [Example 18]	UniProt Q9Y5Y4	> 7.00
Cc1cc(OCC(=O)O)c2c(C)c(Cc3ccc(Cl)cc3)c(C)nc2c1 [Example 4]	UniProt Q9Y5Y4	> 6.00
CCc1nc2c(Cl)ccc(OCC(=O)O)c2c(OC(F)F)c1Cc1ccc(F)cc1 [Example 37]	UniProt Q9Y5Y4	> 7.00

Moving on to the next compound.
Return reported pKi. Input compound: Cc1nc2c(Cl)ccc(OCC(=O)O)c2c(OC(C)C)c1Cc1ccc(F)cc1 [Example 32]
> 6.00
